- Target Or Test System: Integrin alpha-IIb/beta-3 (Homo sapiens, UniProt P05106+P08514)
- Sequence (P05106 27-788 limits assumed): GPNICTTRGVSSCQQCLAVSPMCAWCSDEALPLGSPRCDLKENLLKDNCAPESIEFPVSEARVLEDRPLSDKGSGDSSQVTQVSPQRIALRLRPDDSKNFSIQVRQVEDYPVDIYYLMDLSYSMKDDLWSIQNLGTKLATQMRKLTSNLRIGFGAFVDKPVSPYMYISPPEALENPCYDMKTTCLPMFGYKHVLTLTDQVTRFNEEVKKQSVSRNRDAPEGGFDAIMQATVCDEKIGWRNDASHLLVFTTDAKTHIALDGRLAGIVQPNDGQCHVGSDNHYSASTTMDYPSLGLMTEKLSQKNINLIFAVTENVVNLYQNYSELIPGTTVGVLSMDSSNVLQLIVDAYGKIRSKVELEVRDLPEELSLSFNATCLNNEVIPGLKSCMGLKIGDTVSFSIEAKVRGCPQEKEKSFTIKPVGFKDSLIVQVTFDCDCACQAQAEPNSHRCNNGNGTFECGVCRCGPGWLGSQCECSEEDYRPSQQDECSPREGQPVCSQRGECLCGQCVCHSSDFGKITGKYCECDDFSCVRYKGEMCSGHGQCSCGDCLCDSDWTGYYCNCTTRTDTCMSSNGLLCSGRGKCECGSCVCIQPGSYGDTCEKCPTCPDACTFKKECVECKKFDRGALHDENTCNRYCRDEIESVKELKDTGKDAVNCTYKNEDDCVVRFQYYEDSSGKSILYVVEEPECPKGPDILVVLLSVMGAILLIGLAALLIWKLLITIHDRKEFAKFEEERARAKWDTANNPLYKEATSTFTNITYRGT
- Sequence (P08514 32-887 limits assumed): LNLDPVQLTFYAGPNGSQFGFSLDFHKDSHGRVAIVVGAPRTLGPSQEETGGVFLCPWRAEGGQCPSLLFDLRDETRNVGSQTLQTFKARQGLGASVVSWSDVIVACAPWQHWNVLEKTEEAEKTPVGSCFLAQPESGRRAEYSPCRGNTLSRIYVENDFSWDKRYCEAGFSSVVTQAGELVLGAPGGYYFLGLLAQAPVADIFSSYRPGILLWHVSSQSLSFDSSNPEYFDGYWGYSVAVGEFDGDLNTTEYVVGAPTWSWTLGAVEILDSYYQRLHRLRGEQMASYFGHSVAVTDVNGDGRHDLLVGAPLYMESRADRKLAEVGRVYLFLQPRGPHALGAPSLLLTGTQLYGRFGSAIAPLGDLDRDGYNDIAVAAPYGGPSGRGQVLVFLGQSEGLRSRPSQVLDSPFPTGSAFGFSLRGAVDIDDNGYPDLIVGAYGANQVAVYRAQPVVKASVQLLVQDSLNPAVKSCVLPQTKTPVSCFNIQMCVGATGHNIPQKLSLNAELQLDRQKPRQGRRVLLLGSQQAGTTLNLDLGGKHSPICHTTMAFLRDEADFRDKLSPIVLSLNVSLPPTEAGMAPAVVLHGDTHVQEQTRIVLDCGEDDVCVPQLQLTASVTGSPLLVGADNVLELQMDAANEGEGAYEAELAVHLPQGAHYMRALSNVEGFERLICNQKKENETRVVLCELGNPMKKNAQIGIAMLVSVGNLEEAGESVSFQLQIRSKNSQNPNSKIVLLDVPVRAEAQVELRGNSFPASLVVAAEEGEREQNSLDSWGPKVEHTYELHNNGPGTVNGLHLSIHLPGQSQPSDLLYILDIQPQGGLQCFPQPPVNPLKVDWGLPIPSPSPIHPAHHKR
- Sequence (P08514 891-1039 limits assumed): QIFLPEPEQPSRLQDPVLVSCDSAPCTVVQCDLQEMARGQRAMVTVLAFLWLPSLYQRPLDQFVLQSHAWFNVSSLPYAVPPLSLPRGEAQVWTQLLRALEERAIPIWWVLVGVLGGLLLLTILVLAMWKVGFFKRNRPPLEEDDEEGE
- Method Description: Inhibition of fibrinogen binding to purified human alpha IIb beta-3 integrin by 50% in an ELISA test
- Type: protein-complex assay
Positions of bridges follow the written chain, without caps; N, C: chain ends. Non-standard residues stand in square brackets, D forms with d. Residues, ends and D or L forms follow the SMILES beside them. Pen = CC(C)(S)[C@H](N)C(=O)O; Mpa = O=C(O)CCS
# if measured IC50 < 50 nM: Y  # else: N

Observe how each entry below is paired with its result.
[ask] Identify whether the molecule CCCCC(CC(=O)O)N1CCc2cc(OCc3ccc(C(=N)N)cc3)ccc2C1=O (centres undefined) records IC50 below 50 nM.
[reply] Y

[ask] Item: CCCC(C(=O)O)N1CCc2cc(OCc3ccc(C(=N)N)cc3)ccc2C1=O (centres undefined)
[reply] N

[ask] Another: COc1ccc(C(CC(=O)O)N2CCc3cc(OCc4ccc(C(=N)N)cc4)ccc3C2=O)cc1 (centres undefined)
[reply] Y

[ask] What do we get for CCCC(CC(=O)O)N1CCc2cc(OCc3ccc(C(=N)N)cc3)ccc2C1=O (centres undefined) ?
[reply] Y

[ask] Field entry: `N=C(N)c1ccc(C(=O)Nc2ccc3c(c2)CCN(CC(=O)O)C3=O)cc1`
[reply] Y

[ask] Repeat with CCCC(CN1CCc2cc(OCc3ccc(C(=N)N)cc3)ccc2C1=O)C(=O)O (centres undefined)
[reply] N

[ask] Queued: CCC(CC(=O)O)N1CCc2cc(OCc3ccc(C(=N)N)cc3)ccc2C1=O (centres undefined)
[reply] Y

[ask] Further, for COCCOCC(CC(=O)O)N1CCc2cc(OCc3ccc(C(=N)N)cc3)ccc2C1=O (centres undefined) ?
[reply] N

Others:
[ask] Determine whether this molecule shows IC50 lower than 50 nM (ties excluded): CC1(C)SSCCC(=O)N[C@@H](CCCNC(=N)N)C(=O)NCC(=O)N[C@@H](CC(=O)O)C(=O)N[C@@H](Cc2c[nH]c3ccccc23)C(=O)N2CCC[C@H]2C(=O)N[C@@H]1C(N)=O ([Mpa]RGDWP[Pen]-NH2; disulfide 1-7)
[reply] N

[ask] Same again, this time with CCCCCCC(CC(=O)O)N1CCc2cc(OCc3ccc(C(=N)N)cc3)ccc2C1=O (centres undefined)
[reply] Y

[ask] How about COCCCC(CC(=O)O)N1CCc2cc(OCc3ccc(C(=N)N)cc3)ccc2C1=O (centres undefined) ?
[reply] N

[ask] How about COC(=O)c1ccc(C(CC(=O)O)N2CCc3cc(OCc4ccc(C(=N)N)cc4)ccc3C2=O)cc1 (centres undefined) ?
[reply] Y

[ask] Note, next up: `N=C(N)c1ccc(COc2ccc3c(c2)CCN(CCC(=O)O)C3=O)cc1`
[reply] N

[ask] Entry to check: N=C(N)c1ccc(COc2ccc3c(c2)CCN(C(CC(=O)O)c2ccccc2)C3=O)cc1 (centres undefined)
[reply] Y

====

- Target Or Test System: Integrin alpha-IIb/beta-3 (Homo sapiens, UniProt P05106+P08514)
- Method Description: Inhibition of fibrinogen binding to purified Human alphaIIb-beta3 integrin in ELISA with 1% bovine serum albumin (BSA)
- Format: protein-complex assay
Reported Property: pIC50
Numbers only, as −log10 of the molar value.

Hello, I would appreciate it if you could give pIC50 for each entry below.
1. CCOCCCC(CC(=O)O)N1CCc2cc(OCc3ccc(C(=N)N)cc3)ccc2C1=O (stereo not drawn)
2. CCCCCCC(CC(=O)O)N1CCc2cc(OCc3ccc(C(=N)N)cc3)ccc2C1=O (stereo not drawn)
3. CCCCCC(CC(=O)O)N1CCc2cc(OCc3ccc(C(=N)N)cc3)ccc2C1=O (stereo not drawn)

[reply]
7.14
7.10
7.40

These entries and their values trace back to ChEMBL document CHEMBL1130549.
